B1: Membrane-associated guanylate kinase, WW and PDZ domain-containing protein 2, residues 601 to 682; numbered along this chain, Q86UL8 (parent)
chain: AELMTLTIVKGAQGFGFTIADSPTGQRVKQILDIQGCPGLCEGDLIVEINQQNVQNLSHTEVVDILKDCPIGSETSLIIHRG

- Variants of: B1
- Assay Comment: abundance fitness (aPCA) (normalised: wild type 0, dead -1); higher = more abundant; growth selection in yeast, the domain comes from the species named
- Stated Conditions: Homo sapiens
Quantity Name: abundance fitness
Could you keep your reply to the number by itself?

Reference set (6 entries):
> print(dat)
   mutant  meas.value
1    L66C      -0.398
2    A20I       0.203
3    L40F       0.047
4    C37Q      -0.113
5    D68A       -0.14
6    K29S       0.039

// abundance fitness lookup, variant = V28G , result: -0.655

// abundance fitness lookup, variant = D44A , result: -0.263

// abundance fitness lookup, variant = V63S , result: -0.099

// abundance fitness lookup, variant = I78Q , result: -0.23

// abundance fitness lookup, variant = E74P , result: 0.149

// abundance fitness lookup, variant = G36Q , result: -0.054

// abundance fitness lookup, variant = I34F , result: -0.066

// abundance fitness lookup, variant = E74A , result: -0.185

// abundance fitness lookup, variant = T75R , result: -0.113

These data points were gathered from the Human Domainome abundance scans (Beltran et al. 2025).
